target: natural β-amyloid peptide β-AP1-40 (human); test: cell-based or functional assay
Sequence (peptide, as listed by the source): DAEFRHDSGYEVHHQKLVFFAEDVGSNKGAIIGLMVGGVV
Numbered stars: 1 amine (or outer) side, 2 acyl side, 3 side chain; on linkers, the order of the positions; unused ones are H or OH. Square brackets hold non-standard residues; d marks the D form. Ends that are not written are not given here. * marks the point of attachment. Cholyl = C[C@H](CCC(=O)*)[C@H]1CC[C@H]2[C@@H]3[C@H](O)C[C@@H]4C[C@H](O)CC[C@]4(C)[C@H]3C[C@H](O)[C@]12C; Lithocholoyl = C[C@H](CCC(=O)*)[C@H]1CC[C@H]2[C@@H]3CC[C@@H]4C[C@H](O)CC[C@]4(C)[C@H]3CC[C@]12C; Adp = aminoethyldibenzofuranylpropanoic acid, O=C(CCc1cccc2c1oc1c(CCN[*:1])cccc12)[*:2]; NMeL = CN[C@@H](CC(C)C)C(=O)O; NANA = N-acetyl neuraminyl; Boc = CC(C)(C)OC(=O)*; βAla = NCCC(=O)O
Measured Metric: ΔLag; nucleation assay; 100 mole % (ratio)
Answers are plain numbers, in ratio.

| Binder | ΔLag; nucleation assay; 100 mole %, ratio |
| --- | --- |
| {NANA}-KLVFF-OH [NANA-KLVFF-oh] | 0.9 |
| Lithocholoyl-LVFFA-OH [LithoCA-LVFFA-oh] | 2.8 |

Provide ΔLag; nucleation assay; 100 mole % for all items below, preserving their order.
1. Cholyl-KTVFF-OH (SMILES CC(C)[C@H](NC(=O)[C@@H](NC(=O)[C@H](CCCCN)NC(=O)CC[C@@H](C)[C@H]1CC[C@H]2[C@@H]3[C@H](O)C[C@@H]4C[C@H](O)CC[C@]4(C)[C@H]3C[C@H](O)[C@]12C)[C@@H](C)O)C(=O)N[C@@H](Cc1ccccc1)C(=O)N[C@@H](Cc1ccccc1)C(=O)O) [CA-KTVFF-oh]
2. H-DDII[NMeL]VEH[Adp]LKLVFF-OH (SMILES CC[C@H](C)[C@H](NC(=O)[C@H](CC(=O)O)NC(=O)[C@@H](N)CC(=O)O)C(=O)N[C@H](C(=O)N(C)[C@@H](CC(C)C)C(=O)N[C@H](C(=O)N[C@@H](CCC(=O)O)C(=O)N[C@@H](Cc1c[nH]cn1)C(=O)NCCc1cccc2c1oc1c(CCC(=O)N[C@@H](CC(C)C)C(=O)N[C@@H](CCCCN)C(=O)N[C@@H](CC(C)C)C(=O)N[C@H](C(=O)N[C@@H](Cc3ccccc3)C(=O)N[C@@H](Cc3ccccc3)C(=O)O)C(C)C)cccc12)C(C)C)[C@@H](C)CC) [h-DDII(N-Me-Leu)VEH(Adp)-LKLVFF-oh]
3. Cholyl-AVFFA-OH (SMILES CC(C)[C@H](NC(=O)[C@H](C)NC(=O)CC[C@@H](C)[C@H]1CC[C@H]2[C@@H]3[C@H](O)C[C@@H]4C[C@H](O)CC[C@]4(C)[C@H]3C[C@H](O)[C@]12C)C(=O)N[C@@H](Cc1ccccc1)C(=O)N[C@@H](Cc1ccccc1)C(=O)N[C@@H](C)C(=O)O) [CA-AVFFA-oh]
4. Cholyl-FFVL-OH (SMILES CC(C)C[C@H](NC(=O)[C@@H](NC(=O)[C@H](Cc1ccccc1)NC(=O)[C@H](Cc1ccccc1)NC(=O)CC[C@@H](C)[C@H]1CC[C@H]2[C@@H]3[C@H](O)C[C@@H]4C[C@H](O)CC[C@]4(C)[C@H]3C[C@H](O)[C@]12C)C(C)C)C(=O)O) [CA-FFVL-oh]
5. Cholyl-KLVFF[βAla]-OH (SMILES CC(C)C[C@H](NC(=O)[C@H](CCCCN)NC(=O)CC[C@@H](C)[C@H]1CC[C@H]2[C@@H]3[C@H](O)C[C@@H]4C[C@H](O)CC[C@]4(C)[C@H]3C[C@H](O)[C@]12C)C(=O)N[C@H](C(=O)N[C@@H](Cc1ccccc1)C(=O)N[C@@H](Cc1ccccc1)C(=O)NCCC(=O)O)C(C)C) [CA-KLVFF(βA)-oh]
6. {NANA}-HQKLVFF-NH2 [NANA-HQKLVFF-nh2]
7. Cholyl-VFFA-OH (SMILES CC(C)[C@H](NC(=O)CC[C@@H](C)[C@H]1CC[C@H]2[C@@H]3[C@H](O)C[C@@H]4C[C@H](O)CC[C@]4(C)[C@H]3C[C@H](O)[C@]12C)C(=O)N[C@@H](Cc1ccccc1)C(=O)N[C@@H](Cc1ccccc1)C(=O)N[C@@H](C)C(=O)O) [CA-VFFA-oh]

OUTPUT:
1. 1.2
2. 1.8
3. 1.4
4. 4.1
5. 2.5
6. 1.5
7. 2

Provide ΔLag; nucleation assay; 100 mole % for all items below, preserving their order.
1. Cholyl-QKLVF-OH (SMILES CC(C)C[C@H](NC(=O)[C@H](CCCCN)NC(=O)[C@H](CCC(N)=O)NC(=O)CC[C@@H](C)[C@H]1CC[C@H]2[C@@H]3[C@H](O)C[C@@H]4C[C@H](O)CC[C@]4(C)[C@H]3C[C@H](O)[C@]12C)C(=O)N[C@H](C(=O)N[C@@H](Cc1ccccc1)C(=O)O)C(C)C) [cholyl-Aβ15-19]
2. H-KLVFF-NH2 [h-KLVFF-nh2]
3. Boc-LVFFA-OH [t-Boc-LVFFA-oh]
4. H-LVFFA-OH [h-LVFFA-oh]

OUTPUT:
1: 3.1; 2: 1.3; 3: 3; 4: 1

Provide ΔLag; nucleation assay; 100 mole % for all items below, preserving their order.
1. Cholyl-Gly-Phe-Phe-OH (SMILES C[C@H](CCC(=O)NCC(=O)N[C@@H](Cc1ccccc1)C(=O)N[C@@H](Cc1ccccc1)C(=O)O)[C@H]1CC[C@H]2[C@@H]3[C@H](O)C[C@@H]4C[C@H](O)CC[C@]4(C)[C@H]3C[C@H](O)[C@]12C) [CA-GFF-oh]
2. Cholyl-KLTFF [cholyl-Aβ16-20 (Val18->Thr)]

OUTPUT:
1. 1
2. 1.1
